These entries and their values trace back to patent US20180057604A1.

measured-target: T1, human TfR extracellular domain with N-terminal His tag (human, UniProt P02786 89-760)
T1 construct: Biotinylated in some assays; also called huTfR; HuTfR
T1 sequence (P02786 89-760 G142S): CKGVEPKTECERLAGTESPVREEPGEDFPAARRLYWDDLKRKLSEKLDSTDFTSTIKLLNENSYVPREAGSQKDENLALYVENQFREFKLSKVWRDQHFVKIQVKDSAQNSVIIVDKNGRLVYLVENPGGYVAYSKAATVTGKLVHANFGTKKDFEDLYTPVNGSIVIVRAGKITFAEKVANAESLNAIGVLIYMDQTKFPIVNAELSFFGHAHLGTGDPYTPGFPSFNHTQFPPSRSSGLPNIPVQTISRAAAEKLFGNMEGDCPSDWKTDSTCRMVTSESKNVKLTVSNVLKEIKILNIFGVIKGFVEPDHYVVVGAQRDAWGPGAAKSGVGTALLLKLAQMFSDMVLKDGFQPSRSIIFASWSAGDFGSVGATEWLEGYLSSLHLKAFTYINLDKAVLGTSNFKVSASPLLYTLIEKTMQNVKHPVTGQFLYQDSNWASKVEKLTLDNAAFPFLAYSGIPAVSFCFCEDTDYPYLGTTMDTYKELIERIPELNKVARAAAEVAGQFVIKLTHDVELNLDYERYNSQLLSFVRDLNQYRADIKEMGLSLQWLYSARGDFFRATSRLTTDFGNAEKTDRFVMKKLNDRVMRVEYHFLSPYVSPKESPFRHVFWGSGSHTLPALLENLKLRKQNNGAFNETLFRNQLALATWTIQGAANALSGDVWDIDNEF
assay-summary: ELISA, TfR-coated plate, IgG in culture supernatant;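 note: human or cynomolgus TfR coated at 2 µg/mL, supernatant IgG titrated in 1:5 steps for 1 h, bound antibody read with HRP anti-human Fcγ and TMB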
Mark 1 (yes) for EC50 under 0.4 ng/mL, 0 (no) if at or over.

{"columns": ["binder", "class-label"],
 "data": [
  ["hu15G11.v5 IgG Ala variant R24A (HVR-L1) (antibody, V domains shown, IgG in cell culture supernatant) VH: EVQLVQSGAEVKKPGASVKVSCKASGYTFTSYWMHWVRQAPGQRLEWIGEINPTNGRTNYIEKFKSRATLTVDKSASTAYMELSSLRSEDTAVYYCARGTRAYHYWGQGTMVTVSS VL: DIQMTQSPSSLSASVGDRVTITCAASDNLYSNLAWYQQKPGKSPKLLVYDATNLADGVPSRFSGSGSGTDYTLTISSLQPEDFATYYCQHFWGTPLTFGQGTKVEIK", "1 (yes)"],
  ["hu15G11.v5 IgG Ala variant N52A (HVR-H2) (antibody, V domains shown, IgG in cell culture supernatant; also called 15G11.N52A; 15G11.52A) VH: EVQLVQSGAEVKKPGASVKVSCKASGYTFTSYWMHWVRQAPGQRLEWIGEIAPTNGRTNYIEKFKSRATLTVDKSASTAYMELSSLRSEDTAVYYCARGTRAYHYWGQGTMVTVSS VL: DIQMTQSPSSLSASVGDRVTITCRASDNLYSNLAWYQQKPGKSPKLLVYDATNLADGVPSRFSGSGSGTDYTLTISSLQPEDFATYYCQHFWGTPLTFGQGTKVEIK", "1 (yes)"],
  ["hu15G11.v5 IgG Ala variant I51A (HVR-H2) (antibody, name in Kabat numbering, V domains shown, IgG in cell culture supernatant) VH: EVQLVQSGAEVKKPGASVKVSCKASGYTFTSYWMHWVRQAPGQRLEWIGEANPTNGRTNYIEKFKSRATLTVDKSASTAYMELSSLRSEDTAVYYCARGTRAYHYWGQGTMVTVSS VL: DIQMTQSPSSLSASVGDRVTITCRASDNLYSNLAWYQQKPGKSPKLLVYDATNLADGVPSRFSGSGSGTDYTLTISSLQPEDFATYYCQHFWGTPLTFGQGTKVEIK", "1 (yes)"],
  ["hu15G11.v5 IgG Ala variant L33A (HVR-L1) (antibody, V domains shown, IgG in cell culture supernatant) VH: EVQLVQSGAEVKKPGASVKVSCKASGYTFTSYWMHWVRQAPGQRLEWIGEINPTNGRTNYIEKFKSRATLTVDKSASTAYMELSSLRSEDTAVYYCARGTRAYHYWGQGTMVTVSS VL: DIQMTQSPSSLSASVGDRVTITCRASDNLYSNAAWYQQKPGKSPKLLVYDATNLADGVPSRFSGSGSGTDYTLTISSLQPEDFATYYCQHFWGTPLTFGQGTKVEIK", "1 (yes)"],
  ["hu15G11.v5 IgG Ala variant G26A (HVR-H1) (antibody, name in Kabat numbering, V domains shown, IgG in cell culture supernatant) VH: EVQLVQSGAEVKKPGASVKVSCKASAYTFTSYWMHWVRQAPGQRLEWIGEINPTNGRTNYIEKFKSRATLTVDKSASTAYMELSSLRSEDTAVYYCARGTRAYHYWGQGTMVTVSS VL: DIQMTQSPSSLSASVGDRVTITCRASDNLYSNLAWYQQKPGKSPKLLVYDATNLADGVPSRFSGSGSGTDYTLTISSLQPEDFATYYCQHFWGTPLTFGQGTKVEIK", "0 (no)"],
  ["hu15G11.v5 IgG Ala variant S31A (HVR-H1) (antibody, name in Kabat numbering, V domains shown, IgG in cell culture supernatant; also called S31A (heavy chain)) VH: EVQLVQSGAEVKKPGASVKVSCKASGYTFTAYWMHWVRQAPGQRLEWIGEINPTNGRTNYIEKFKSRATLTVDKSASTAYMELSSLRSEDTAVYYCARGTRAYHYWGQGTMVTVSS VL: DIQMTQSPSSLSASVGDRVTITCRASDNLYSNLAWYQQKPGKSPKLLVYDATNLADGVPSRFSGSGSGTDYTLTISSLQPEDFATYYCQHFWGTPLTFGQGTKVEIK", "1 (yes)"],
  ["hu15G11.v5 IgG Ala variant F29A (HVR-H1) (antibody, name in Kabat numbering, V domains shown, IgG in cell culture supernatant) VH: EVQLVQSGAEVKKPGASVKVSCKASGYTATSYWMHWVRQAPGQRLEWIGEINPTNGRTNYIEKFKSRATLTVDKSASTAYMELSSLRSEDTAVYYCARGTRAYHYWGQGTMVTVSS VL: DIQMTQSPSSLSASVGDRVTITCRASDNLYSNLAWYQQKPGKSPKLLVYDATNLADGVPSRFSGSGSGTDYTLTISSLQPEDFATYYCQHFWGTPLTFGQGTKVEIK", "0 (no)"],
  ["hu15G11.v5 IgG Ala variant P52aA (HVR-H2) (antibody, name in Kabat numbering, V domains shown, IgG in cell culture supernatant) VH: EVQLVQSGAEVKKPGASVKVSCKASGYTFTSYWMHWVRQAPGQRLEWIGEINATNGRTNYIEKFKSRATLTVDKSASTAYMELSSLRSEDTAVYYCARGTRAYHYWGQGTMVTVSS VL: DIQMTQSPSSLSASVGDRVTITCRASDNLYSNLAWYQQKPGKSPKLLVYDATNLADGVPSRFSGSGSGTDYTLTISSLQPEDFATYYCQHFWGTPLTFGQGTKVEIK", "0 (no)"]
]}
